- experimental-target: KIAA 1361 (baculovirus expressed human KIAA 1361 kinase domain 2-322) (Homo sapiens, UniProt Q7L7X3)
- Sequence (Q7L7X3 2-322): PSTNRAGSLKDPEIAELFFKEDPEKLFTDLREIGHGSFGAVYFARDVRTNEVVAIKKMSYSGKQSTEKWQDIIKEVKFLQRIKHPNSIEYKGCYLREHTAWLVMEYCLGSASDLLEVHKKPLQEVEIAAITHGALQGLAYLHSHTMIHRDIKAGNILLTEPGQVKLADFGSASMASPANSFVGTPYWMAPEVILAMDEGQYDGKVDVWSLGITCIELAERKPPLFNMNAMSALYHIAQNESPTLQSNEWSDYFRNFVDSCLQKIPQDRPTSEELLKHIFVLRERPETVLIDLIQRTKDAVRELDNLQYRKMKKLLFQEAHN
Recorded IC50 by entry

# molecule, IC50
measured = [
    ("O=C(COc1ccc(Cl)cc1)NCC(=O)NC1CCCc2ccccc21 (centres unmarked) [Entry 34]", "> 5000 nM"),
    ("CCc1ccc(-c2ccc(C(=O)NCC(=O)NCc3ccc(Cl)c(Cl)c3)cc2)cc1 [Entry 54]", "> 5000 nM"),
    ("CCCCCCc1ccc(C(=O)NCC(=O)NC2CCCc3ccccc32)cc1 (centres unmarked) [Entry 10]", "50 to 500 nM"),
    ("O=C(CC(NC(=O)c1ccccc1)c1ccccc1)NCC(=O)Nc1nccs1 (centres unmarked) [Entry 92]", "500 to 5000 nM"),
    ("CCOCCCn1c(=S)[nH]c2cc(C(=O)NCC3COc4ccccc4O3)ccc2c1=O (centres unmarked) [Entry 39]", "50 to 500 nM"),
    ("CCc1ccc(-c2ccc(C(=O)NCC(=O)NCc3ccccc3)cc2)cc1 [Entry 52]", "> 5000 nM"),
    ("CCc1cccc(NC(=O)NCC(=O)NC2CCCc3ccccc32)c1 (centres unmarked) [Entry 48]", "> 5000 nM"),
    ("CCc1ccc(-c2ccc(C(=O)NC(C)C(=O)NC3CCc4ccccc4C3)cc2)cc1 (centres unmarked) [Entry 5]", "< 50 nM"),
    ("CCCCc1ccc(C(=O)NCC(=O)NC2CCCc3ccccc32)cc1 (centres unmarked) [Entry 29]", "500 to 5000 nM"),
    ("O=C(NC(C(=O)NC1CCCc2ccccc21)c1cccnc1)c1ccc(/N=N/c2ccccc2)cc1 (centres unmarked) [Entry 26]", "500 to 5000 nM"),
    ("O=C(CNC(=O)N1CCN(c2ccccc2)CC1)NC1CCCc2ccccc21 (centres unmarked) [Entry 91]", "> 5000 nM"),
]

Hello, the source for this data is patent US20070208166A1, in case you need it.
